- measurement-target: Conus γ-glutamyl carboxylase (Conus radiatus venom duct microsomes)
- Format: biochemical
- run-parameters: read-out: apparent IC50
readout-type: IC50

Some entries whose results are on file:
## Task Look up IC50 of GTGTLDDGGALTERRSADAT [Pro (-60 to -41)] and report it.
## Result > 1000 µM

## Task Look up IC50 of ALKAEPVLLQKSAARSTDDN [Pro (-40 to -21)] and report it.
## Result > 1000 µM

Here is another sequence to look at.
## Task Look up IC50 of KSAARSTDDNGKDRLTQMKRILKQRGNKAR [Pro (-30 to -1)] and report it.
## Result 200 µM
